experiment: in vivo
Set-up: species or system mice
settings: C57, mouse, iv, 0.037 MBq, total radioactivity, Normal organ uptake, except for kidney uptake
Positions of bridges follow the written chain, without caps; N, C: chain ends. Non-standard residues stand in square brackets, D forms with d. Residues, ends and D or L forms follow the SMILES beside them. *: point of attachment. NOTA = O=C(O)CN1CCN(CC(=O)O)CCN(CC(=O)*)CC1; Nle = CCCC[C@H](N)C(=O)O
Consider the following molecules and their measured tissue uptake at 2 h readings.
measured_metric: tissue uptake at 2 h

molecule	measured_metric	result
CCCC[C@H](NC(=O)CNC(=O)CNC(=O)CN1CCN(CC(=O)O)CCN(CC(=O)O)CC1)C(=O)N[C@H]1CC(=O)NCCCC[C@@H](C(N)=O)NC(=O)[C@H](Cc2c[nH]c3ccccc23)NC(=O)[C@H](CCCNC(=N)N)NC(=O)[C@@H](Cc2ccccc2)NC(=O)[C@H](Cc2c[nH]cn2)NC1=O [^67Cu-NOTA-GGNle-CycMSHhex, ^67Cu-NOTA-GlyGlyNle-CycMSHhex, metal not drawn] ({NOTA}-GG[Nle]DH[dF]RWK-NH2; lactam 4-9)	tissue uptake at 2 h	< 2 %ID/g
CCCC[C@H](NC(=O)COCCOCCNC(=O)CN1CCN(CC(=O)O)CCN(CC(=O)O)CC1)C(=O)N[C@H]1CC(=O)NCCCC[C@@H](C(N)=O)NC(=O)[C@H](Cc2c[nH]c3ccccc23)NC(=O)[C@H](CCCNC(=N)N)NC(=O)[C@@H](Cc2ccccc2)NC(=O)[C@H](Cc2c[nH]cn2)NC1=O [^67Cu-NOTA-PEG2Nle-CycMSHhex, metal not drawn]	tissue uptake at 2 h	< 2 %ID/g

---

Consider the following compounds and their measured tissue uptake at 0.5 h readings.
experiment: in vivo
Parameters: species or system mice
settings: C57, mouse, iv, 0.037 MBq, total radioactivity, Stomach uptake
Positions of bridges follow the written chain, without caps; N, C: chain ends. Non-standard residues stand in square brackets, D forms with d. Residues, ends and D or L forms follow the SMILES beside them. *: point of attachment. NOTA = O=C(O)CN1CCN(CC(=O)O)CCN(CC(=O)*)CC1; Nle = CCCC[C@H](N)C(=O)O

compound	tissue uptake at 0.5 h
CCCC[C@H](NC(=O)CNC(=O)CNC(=O)CN1CCN(CC(=O)O)CCN(CC(=O)O)CC1)C(=O)N[C@H]1CC(=O)NCCCC[C@@H](C(N)=O)NC(=O)[C@H](Cc2c[nH]c3ccccc23)NC(=O)[C@H](CCCNC(=N)N)NC(=O)[C@@H](Cc2ccccc2)NC(=O)[C@H](Cc2c[nH]cn2)NC1=O [^67Cu-NOTA-GGNle-CycMSHhex, ^67Cu-NOTA-GlyGlyNle-CycMSHhex, metal not drawn] ({NOTA}-GG[Nle]DH[dF]RWK-NH2; lactam 4-9)	1.53 %ID/g
CCCC[C@H](NC(=O)COCCOCCNC(=O)CN1CCN(CC(=O)O)CCN(CC(=O)O)CC1)C(=O)N[C@H]1CC(=O)NCCCC[C@@H](C(N)=O)NC(=O)[C@H](Cc2c[nH]c3ccccc23)NC(=O)[C@H](CCCNC(=N)N)NC(=O)[C@@H](Cc2ccccc2)NC(=O)[C@H](Cc2c[nH]cn2)NC1=O [^67Cu-NOTA-PEG2Nle-CycMSHhex, metal not drawn]	1.13 %ID/g
